Data origin, for the record: paper PMC3128011

- METHOD SUMMARY: Brain and plasma concentrations after IV dosing in mice (LCMS/MS); free brain level from equilibrium dialysis fu
- Format: in vivo
- MEASUREMENT SETUP: mouse, plasma; male FVB mice, IV 5 mg/kg; 24 h relative to the 5 minute time point; read-out: Residual plasma concentration at 24 h (24h % Remaining)
ENDPOINT NAME: remaining at 24 h
Your answer should be a number followed by the unit of measure.

{"columns": ["MOLECULE", "REPORTED RESULT"],
 "data": [
  ["OC(CNCCNCc1ccccc1)c1cc(C(F)(F)F)nc2c(C(F)(F)F)cccc12 (stereo not drawn) [WR308396]", "4.6%"],
  ["CCCCNCCNCC(O)c1cc(C(F)(F)F)nc2c(C(F)(F)F)cccc12 (stereo not drawn) [WR318746]", "2.4%"],
  ["OC(CNCC12CCC(C1)NC2)c1cc(C(F)(F)F)nc2c(C(F)(F)F)cccc12 (stereo not drawn) [WR319535]", "2.7%"],
  ["OC(CNC1CCCNC1)c1cc(C(F)(F)F)nc2c(C(F)(F)F)cccc12 (stereo not drawn) [WR318744]", "17%"],
  ["OC(CNC1CCNC1)c1cc(C(F)(F)F)nc2c(C(F)(F)F)cccc12 (stereo not drawn) [WR308781]", "3.3%"]
]}

Would you kindly look at the next entry?
# query: remaining at 24 h of entry OC(c1cc(C(F)(F)F)nc2c(C(F)(F)F)cccc12)C1CCCCN1 (stereo not drawn) [Mefloquine, mefloquine]
35%

###

- METHOD SUMMARY: Brain and plasma concentrations after IV dosing in mice (LCMS/MS); free brain level from equilibrium dialysis fu
- Type: in vivo
- MEASUREMENT SETUP: male FVB mice, IV 5 mg/kg, sampled 5 min, 1, 6, 24 h
// Condition not met strictly below 600 ng/g in Maximum whole brain concentration; Condition met otherwise

Past entries and their recorded results:
{"columns": ["COMPOUND", "CLASS NAME"],
 "data": [
  ["CCCCNCCNCC(O)c1cc(C(F)(F)F)nc2c(C(F)(F)F)cccc12 (stereo not drawn)", "Condition not met"],
  ["OC(CNC1CCNC1)c1cc(C(F)(F)F)nc2c(C(F)(F)F)cccc12 (stereo not drawn)", "Condition met"],
  ["OC(CNCCNCc1ccccc1)c1cc(C(F)(F)F)nc2c(C(F)(F)F)cccc12 (stereo not drawn)", "Condition met"],
  ["OC(CNCC12CCC(C1)NC2)c1cc(C(F)(F)F)nc2c(C(F)(F)F)cccc12 (stereo not drawn)", "Condition not met"]
]}

# evaluate next
Does the reported Maximum whole brain concentration for O[C@H](c1cc(C(F)(F)F)nc2c(C(F)(F)F)cccc12)[C@@H]1CCCCN1 (single isomer, unassigned) [(+) mefloquine enantiomer, reference compound] fall at or above the 600 ng/g mark?
Condition met

###

- METHOD SUMMARY: Brain and plasma concentrations after IV dosing in mice (LCMS/MS); free brain level from equilibrium dialysis fu
- Format: in vivo
- MEASUREMENT SETUP: male FVB mice, IV 5 mg/kg; whole brain concentration x fu from brain homogenate equilibrium dialysis
- Method: All in vivo studies were conducted in accordance with protocols approved by the Victorian College of Pharmacy, Animal Ethics Committee. Male, six week old FVB mice were obtained from the Animals Resources Center (Perth, Western Australia) and provided with food and water ad libitum. […] An aliquot of the supernatant from each brain homogenate and plasma samples were analysed by UPLC/MS/MS on either a Quattro Premier XE, a Quattro Ultima Pt or a Xevo XT Mass Spectrometer (Waters Corporation, USA). […]
// not met strictly below 4 ng/g in Maximum free brain concentration; met otherwise

{"columns": ["COMPOUND", "CLASS NAME"],
 "data": [
  ["OC(CNC1CCCNC1)c1cc(C(F)(F)F)nc2c(C(F)(F)F)cccc12 (stereo not drawn)", "not met"]
]}

Does the reported Maximum free brain concentration for CCCCNCCNCC(O)c1cc(C(F)(F)F)nc2c(C(F)(F)F)cccc12 (stereo not drawn) fall at or above the 4 ng/g mark?
not met

Does the reported Maximum free brain concentration for OC(CNCCNCc1ccccc1)c1cc(C(F)(F)F)nc2c(C(F)(F)F)cccc12 (stereo not drawn) fall at or above the 4 ng/g mark?
not met

Does the reported Maximum free brain concentration for O[C@H](c1cc(C(F)(F)F)nc2c(C(F)(F)F)cccc12)[C@@H]1CCCCN1 (single isomer, unassigned) [(+) mefloquine enantiomer, reference compound] fall at or above the 4 ng/g mark?
not met

Does the reported Maximum free brain concentration for OC(CNCC12CCC(C1)NC2)c1cc(C(F)(F)F)nc2c(C(F)(F)F)cccc12 (stereo not drawn) fall at or above the 4 ng/g mark?
not met

Does the reported Maximum free brain concentration for OC(CNC1CCNC1)c1cc(C(F)(F)F)nc2c(C(F)(F)F)cccc12 (stereo not drawn) fall at or above the 4 ng/g mark?
met
